Data provenance is the supplement of paper PMC9170038.

# Tested on: K4 kissing-loop RNA reporter;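 further: bound reporter read as fluorescence of individual clusters on recovered sequencing chips by microscopy, with normalized cluster intensities fitted with a binding model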
# protocolText: apparent KD of K4 kissing-loop reporter; higher = weaker reporter binding
# measurementParameters: Eterna round: R107; input ligand: theophylline 20 uM
propertyName: apparent KD of K4 kissing-loop reporter (nM)
Kindly provide the numeric value in nM only, without the unit symbol.

Consider the reported apparent KD of K4 kissing-loop reporter for these sequences:
sequenceChain	systemTested	apparent KD of K4 kissing-loop reporter [nM]
UGACAUUGCUCAGAUACCAGACUUGAGGAUCACCCAAGUGCCAAAACGUACUAAAUAAAAGUCCCUUGGCAGCUGAGCAAUGUCU [TheoBX 13]	K4 kissing-loop RNA reporter	88
UUAGGAGUGGAAGGAUAUCCUGGUGUGGGUGAUGUUAGUGAUGUUGAAAGUGCAGUGAUGUUGUGCGGAGAAGGUCCGGUGUUGA [BDazzled - #8 - Exc. FMN B]	K4 kissing-loop RNA reporter	243
AGACUACCACACUGUCAAUAGACAGUGAGCUAGGAUAUGCUGAUAAGCAGAAGGAGUGAUGUUCCCAGGUAGUCAAUAAAAUAAU [FmnAX 13 G29+C66]	K4 kissing-loop RNA reporter	302
GUGGUUUACGUAGGAUAUCGAUGAUGAGUAAAUGGAGUGAUGUUCCGAGAUUGAAUAUGAGAUGAGCGAGAAGGGCGGUUUAUGC [FMN B Same State; Euporia Solution 2]	K4 kissing-loop RNA reporter	37.3
GCGCGUCAUGUCAGCGGAGACACUGUCGAUACCAGCGCCGCAAGGCGCCCUUGGCAGCGACGCGCUGGAGUGAUGUUCCAGCGUG [#2 Exclusion - Theophylline A Attempt #15 (HarryS)]	K4 kissing-loop RNA reporter	143

The reported value for `UGACUGGACUGAAGGAGCGCUUAACUCCUAGUGAUGUUAGGAAAACGAGACAAAGUCUCGAAGCAGGUAGGUCGCAGUCUAGUCU` in terms of apparent KD of K4 kissing-loop reporter is 158
